molecular target: T1, CD3 epsilon homodimer protein (UniProt P07766 23-126); test: SPR Biacore T200, CD3e homodimer on chip, vs unaltered GLS3000 antibody
T1 construct: also called CD3 (CD3 epsilon)
T1 sequence (P07766 23-126): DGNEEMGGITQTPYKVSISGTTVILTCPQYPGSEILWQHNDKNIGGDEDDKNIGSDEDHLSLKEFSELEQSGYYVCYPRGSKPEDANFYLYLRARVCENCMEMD
Use 0.6 as the dividing line for ratio of amounts bound (Z=Y/X), with the line itself on the Fulfilled side and lower values as Not fulfilled.

BINDER	CLASS
GLS3000 K50G (antibody, name in Kabat numbering, V domains shown, one-arm IgG as m2) VH: QVQLVESGGGVVQPGRSLRLSCAASGFTFSNAWMHWVRQAPGKGLEWVAQIKAKSNNYATYYAESVKGRFTISRDDSKNSLYLQMNSLKTEDTAVYYCRYVHYGAYYGVDAWGQGTTVTVSS VL: DIVMTQSPLSLPVTPGEPASISCRSSQSLVHSNRNTYLHWYQQKPGQAPRLLIYGVSNRFSGVPDRFSGSGSGTDFTLKISRVEAEDVGVYYCGQGTQVPYTFGQGTKLEIK	Not fulfilled
GLS3000 H27dS (antibody, name in Kabat numbering, V domains shown, one-arm IgG as m2) VH: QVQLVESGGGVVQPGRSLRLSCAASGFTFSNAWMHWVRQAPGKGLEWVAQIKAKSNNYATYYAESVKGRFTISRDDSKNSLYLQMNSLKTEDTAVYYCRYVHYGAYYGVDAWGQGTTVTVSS VL: DIVMTQSPLSLPVTPGEPASISCRSSQSLVSSNRNTYLHWYQQKPGQAPRLLIYKVSNRFSGVPDRFSGSGSGTDFTLKISRVEAEDVGVYYCGQGTQVPYTFGQGTKLEIK	Not fulfilled
GLS3000 N30Y (antibody, name in Kabat numbering, V domains shown, one-arm IgG as m2) VH: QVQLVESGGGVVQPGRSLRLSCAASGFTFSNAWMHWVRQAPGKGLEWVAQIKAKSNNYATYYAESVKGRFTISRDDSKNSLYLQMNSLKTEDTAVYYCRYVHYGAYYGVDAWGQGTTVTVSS VL: DIVMTQSPLSLPVTPGEPASISCRSSQSLVHSNRYTYLHWYQQKPGQAPRLLIYKVSNRFSGVPDRFSGSGSGTDFTLKISRVEAEDVGVYYCGQGTQVPYTFGQGTKLEIK	Fulfilled
GLS3000 V27cP (antibody, name in Kabat numbering, V domains shown, one-arm IgG as m2) VH: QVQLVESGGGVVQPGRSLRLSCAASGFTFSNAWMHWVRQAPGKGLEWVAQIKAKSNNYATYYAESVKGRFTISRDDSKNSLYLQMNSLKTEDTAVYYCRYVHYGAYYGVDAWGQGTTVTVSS VL: DIVMTQSPLSLPVTPGEPASISCRSSQSLPHSNRNTYLHWYQQKPGQAPRLLIYKVSNRFSGVPDRFSGSGSGTDFTLKISRVEAEDVGVYYCGQGTQVPYTFGQGTKLEIK	Not fulfilled

Numbers sourced from patent US20210388087A1.
